- System: Fuc(a1-2)Gal(b1-4)GlcNAc(b1-3)Gal(b1-4)GlcNAc(b1-3)Gal(b1-4)GlcNAc
- Assay Details: glycan array binding signal (z-score within array); higher = stronger binding
- Setup Conditions: glycan notation: IUPAC condensed, linker removed
The sample as a whole holds a higher share of the strongest signals than the screen did.
Attribute Measured: glycan array binding signal (z-score)
Answer with the value's number alone.

Binder	glycan array binding signal (z-score)
Mincle (Homo sapiens), Q9ULY5 (protein) MNSSKSSETQCTERGCFSSQMFLWTVAGIPILFLSACFITRCVVTFRIFQTCDEKKFQLPENFTELSCYNYGSGSVKNCCPLNWEYFQSSCYFFSTDTISWALSLKNCSAMGAHLVVINSQEEQEFLSYKKPKMREFFIGLSDQVVEGQWQWVDGTPLTKSLSFWDVGEPNNIATLEDCATMRDSSNPRQNWNDVTCFLNYFRICEMVGINPLNKGKSL	0.144

Please look at the following binder next.
glycan array binding signal (z-score) lookup needed for L-Selectin (Mus musculus), P18337 (protein) MVFPWRCEGTYWGSRNILKLWVWTLLCCDFLIHHGTHCWTYHYSEKPMNWENARKFCKQNYTDLVAIQNKREIEYLENTLPKSPYYYWIGIRKIGKMWTWVGTNKTLTKEAENWGAGEPNNKKSKEDCVEIYIKRERDSGKWNDDACHKRKAALCYTASCQPGSCNGRGECVETINNHTCICDAGYYGPQCQYVVQCEPLEAPELGTMDCIHPLGNFSFQSKCAFNCSEGRELLGTAETQCGASGNWSSPEPICQVVQCEPLEAPELGTMDCIHPLGNFSFQSKCAFNCSEGRELLGTAETQCGASGNWSSPEPICQETNRSFSKIKEGDYNPLFIPVAVMVTAFSGLAFLIWLARRLKKGKKSQERMDDPY , thanks.
-0.485
